Give measured binding signal for each item. Keep answers brief.
# target_system: MYC (p64);MAX (p21), in MYC:MAX (human;human, UniProt P01106-1;P61244-2 1-439;1-151, |)
# Sequence (P01106 16-454, chain 1 of 2): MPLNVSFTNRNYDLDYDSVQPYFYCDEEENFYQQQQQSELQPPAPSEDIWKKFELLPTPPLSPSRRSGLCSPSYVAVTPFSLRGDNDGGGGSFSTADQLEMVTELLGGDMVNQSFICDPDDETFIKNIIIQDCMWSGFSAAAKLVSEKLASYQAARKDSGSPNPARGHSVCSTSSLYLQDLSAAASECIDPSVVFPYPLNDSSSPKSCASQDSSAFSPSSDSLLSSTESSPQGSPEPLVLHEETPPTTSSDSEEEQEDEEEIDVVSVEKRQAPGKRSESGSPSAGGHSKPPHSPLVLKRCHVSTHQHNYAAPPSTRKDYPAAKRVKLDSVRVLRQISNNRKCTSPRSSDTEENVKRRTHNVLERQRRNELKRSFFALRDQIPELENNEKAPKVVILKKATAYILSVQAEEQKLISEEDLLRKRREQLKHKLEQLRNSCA
# Sequence (P61244 other isoform, or with tags, fused parts or gaps |, chain 2 of 2): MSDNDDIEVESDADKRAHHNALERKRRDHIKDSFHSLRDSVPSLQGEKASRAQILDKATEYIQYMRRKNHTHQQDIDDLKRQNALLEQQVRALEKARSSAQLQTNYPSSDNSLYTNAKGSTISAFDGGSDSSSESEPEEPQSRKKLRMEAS
# protocol_details: protein-binding microarray (anti-MAX antibody); PBM: 15 mM Tris-HCl pH 7.5, 100 mM KCl, 0.075% NP40, 7.5 mM beta-mercaptoethanol, 375 ng/ul BSA, 8 ng/ul poly(dA-dT):(dA-dT), 550 ng complex, 60 min, room tempe; high values mean tight binding
# condition_parameters: protein: recombinant;recombinant; tags: 6xHis;6xHis; copies: 1;1; label: 3' end of printed strand (linker) attached to glass slide; dsDNA, one strand shown
The full ranking holds about 5,000 sequences; the median of “log2 normalized fluorescence” is about 0.089, and the highest 2% start at about 0.81. The full list was thinned out, with the highest values kept by preference.

Need binding signal of "CCGGCTGACACGTAGAGTTAATAGCTAAGATTACTATATCGACG" , thanks.
0.293 log2 normalized fluorescence

Which binding signal reading was recorded for the sequence "CCGGCTGATTACGAGTATTAATAGCTAAGATTACTATATCGACG" ?
0.0125 log2 normalized fluorescence

Item "CCGGCTGACACGTGGGTTTAATAGCTAAGATTACTATATCGACG" has what recorded binding signal?
0.725 log2 normalized fluorescence

binding signal for "CCGGCTGACTACATGTATTAATAGCTAAGATTACTATATCGACG" ?
0.419 log2 normalized fluorescence

Dear colleague, I am looking for the recorded binding signal of the following sequence: "CCGGCTGAGACCTGCTATTAATAGCTAAGATTACTATATCGACG"
-0.0388 log2 normalized fluorescence

Could you share which binding signal value was measured for "CCGGCAGACACGTGGTGTTAATAGCTAAGATTACTATATCGACG" ?
0.826 log2 normalized fluorescence

// query binding signal value for entry "CCGGCTGGGTCGTGGTATTAATAGCTAAGATTACTATATCGACG"
0.0754 log2 normalized fluorescence

Sample "CCGGCTGAGTACGGGTATTAATAGCTAAGATTACTATATCGACG" — what was its binding signal?
-0.0173 log2 normalized fluorescence

Need binding signal, item "CCGGCTGACACGTGGAGTTAATAGCTAAGATTACTATATCGACG"
0.923 log2 normalized fluorescence

binding signal lookup needed for "CCGGCTGACCTGTTGTATTAATAGCTAAGATTACTATATCGACG" , thanks.
0.216 log2 normalized fluorescence

Suppose we examine the sequence "CCGGCTGACACGTGCTGTTAATAGCTAAGATTACTATATCGACG" ; what binding signal value has been reported?
0.743 log2 normalized fluorescence

Any idea what its binding signal is? The sequence is "CCGGCTGTCACGTGGAATTAATAGCTAAGATTACTATATCGACG"
0.766 log2 normalized fluorescence

Suppose we examine the sequence "CCGGCTGACACGTGGGATTAATAGCTAAGATTACTATATCGACG" ; what binding signal value has been reported?
0.669 log2 normalized fluorescence

Query (sequence): "CCGGCTGAGGCCCCGTATTAATAGCTAAGATTACTATATCGACG" ; field requested: binding signal
0.00137 log2 normalized fluorescence

Fill in the blank: the reported binding signal of "CCGGCCGACATGTAGTATTAATAGCTAAGATTACTATATCGACG" is ____.
0.368 log2 normalized fluorescence

Any idea what binding signal was measured for "CCGGCTGACACGTGCTATTAATAGCTAAGATTACTATATCGACG" ?
0.869 log2 normalized fluorescence

Entry under review: "CCGGCTGACGTCAGGTATTAATAGCTAAGATTACTATATCGACG" . Reported binding signal?
0.293 log2 normalized fluorescence

Using the record for "CCGGCTGAGATGCTGTATTAATAGCTAAGATTACTATATCGACG" , report its binding signal.
-0.0512 log2 normalized fluorescence

Need binding signal, item "CCGGCTGAGGTGACGTATTAATAGCTAAGATTACTATATCGACG"
0.0346 log2 normalized fluorescence

Value lookup for binding signal; key = "CCGGCTCCAACGTGGTATTAATAGCTAAGATTACTATATCGACG"
0.579 log2 normalized fluorescence

Item under review: "CCGGCTGATACACGGTATTAATAGCTAAGATTACTATATCGACG" . Reported binding signal?
0.262 log2 normalized fluorescence

Recorded binding signal for "CCGGCTGAACCTCAGTATTAATAGCTAAGATTACTATATCGACG" , please?
0.265 log2 normalized fluorescence
